# credit: patent US20120101110A1

# MEASUREMENT TARGET: human orexin 1 receptors (Homo sapiens)
# METHOD NOTES: Calcium accumulation in cells (FLIPR), hOx1R
pKi: −log10 of the molar value.
Let's look at some compounds and their measured pKi.

TEST SMILES: COCc1cccc(CN2CCCC3(CCN(c4nc(C)cc(OC)n4)CC3)C2=O)c1
MEASUREMENT TARGET: human orexin 1 receptors (Homo sapiens)
pKi: 5.67
--
TEST SMILES: COCc1cccc(-c2ocnc2CN2CCCC3(CCN(c4nc(C)cc(C)n4)CC3)C2=O)c1
MEASUREMENT TARGET: human orexin 1 receptors (Homo sapiens)
pKi: 5.75
--
TEST SMILES: CCOc1ccnc(N2CCC3(CCCN(Cc4c[nH]c5ccccc45)C3=O)CC2)n1
MEASUREMENT TARGET: human orexin 1 receptors (Homo sapiens)
pKi: 5.98
--
TEST SMILES: COc1cc(N2CCC3(CCCN(Cc4c[nH]c5ccccc45)C3=O)CC2)ccn1
MEASUREMENT TARGET: human orexin 1 receptors (Homo sapiens)
pKi: 5.42

###

# MEASUREMENT TARGET: human orexin 1 receptors (Homo sapiens)
# METHOD NOTES: Calcium accumulation in cells (FLIPR), hOx1R

TEST SMILES: Cc1cc(C#N)nc(N2CCC3(CCCN(Cc4c[nH]c5ccccc45)C3=O)CC2)n1
READING UNIT: µM
Ki: 1.48
//
TEST SMILES: Cc1ccnc(N2CCC3(CCCN(Cc4c[nH]c5ccccc45)C3=O)CC2)n1
READING UNIT: µM
Ki: 1.5
//
TEST SMILES: Cc1cc(C#N)nc(N2CCC3(CCCN(Cc4cccc(-c5ncc(C)o5)c4)C3=O)CC2)n1
READING UNIT: µM
Ki: 1.89
//
TEST SMILES: Cc1cc(C)nc(N2CCC3(CCCN(Cc4cn(C)c5ccccc45)C3=O)CC2)n1
READING UNIT: µM
Ki: 1.53

###

# MEASUREMENT TARGET: human orexin 1 receptors (Homo sapiens)
# Sequence (O43613 1-425): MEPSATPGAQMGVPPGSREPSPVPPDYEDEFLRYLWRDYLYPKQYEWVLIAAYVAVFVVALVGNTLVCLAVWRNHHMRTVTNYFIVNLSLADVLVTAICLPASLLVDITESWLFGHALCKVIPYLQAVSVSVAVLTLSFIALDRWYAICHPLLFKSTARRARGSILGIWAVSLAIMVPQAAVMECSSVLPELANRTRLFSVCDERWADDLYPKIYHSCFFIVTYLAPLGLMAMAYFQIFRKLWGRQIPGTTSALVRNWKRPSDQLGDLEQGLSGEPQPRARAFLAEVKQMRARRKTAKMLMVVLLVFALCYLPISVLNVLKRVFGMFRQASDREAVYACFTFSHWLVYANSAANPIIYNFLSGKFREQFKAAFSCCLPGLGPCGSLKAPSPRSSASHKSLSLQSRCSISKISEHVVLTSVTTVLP
pKd: −log10 of the molar value.
PROPERTY NAME: pKd

TEST SMILES: COCc1cccc(-c2nn(C)nc2CN2CCCC3(CCN(c4nc(C)cc(C)n4)CC3)C2=O)c1
PROPERTY NAME: pKd
VALUE OPERATOR: =
VALUE OBSERVED: 5.88

TEST SMILES: Cc1cc(C)nc(N2CCC3(CCCN(Cc4n[nH]c5ccccc45)C3=O)CC2)n1
PROPERTY NAME: pKd
VALUE OPERATOR: =
VALUE OBSERVED: 5.98

TEST SMILES: Cc1cc(C#N)cc(N2CCC3(CCCN(Cc4c[nH]c5ccccc45)C3=O)CC2)n1
PROPERTY NAME: pKd
VALUE OPERATOR: =
VALUE OBSERVED: 5.47

TEST SMILES: CCc1cc(C)nc(N2CCC3(CCCN(Cc4c[nH]c5ccccc45)C3=O)CC2)n1
PROPERTY NAME: pKd
VALUE OPERATOR: =
VALUE OBSERVED: 6.08

TEST SMILES: Cc1cc(C)nc(N2CCC3(CCCN(Cc4cccc(-c5ncc(C)o5)c4)C3=O)CC2)n1
PROPERTY NAME: pKd
VALUE OPERATOR: =
VALUE OBSERVED: 6.37

TEST SMILES: N#Cc1cccc(N2CCC3(CCCC(=O)N3Cc3cccc4[nH]ccc34)CC2)n1
PROPERTY NAME: pKd
VALUE OPERATOR: <
VALUE OBSERVED: 5.00

TEST SMILES: Cc1cc(C)nc(N2CCC3(CCCN(Cc4cn(C)c5ccccc45)C3=O)CC2)n1
PROPERTY NAME: pKd
VALUE OPERATOR: =
VALUE OBSERVED: 5.34

TEST SMILES: Cc1cccc(N2CCC3(CCCN(Cc4c[nH]c5ccccc45)C3=O)CC2)n1
PROPERTY NAME: pKd
VALUE OPERATOR: =
VALUE OBSERVED: 5.61

TEST SMILES: Cc1cc(C)nc(N2CCC3(CCCN(Cc4c[nH]c5ccc(C#N)cc45)C3=O)CC2)n1
PROPERTY NAME: pKd
VALUE OPERATOR: =
VALUE OBSERVED: 6.18

TEST SMILES: Cc1cncc(N2CCC3(CCCC(=O)N3Cc3c[nH]c4ccccc34)CC2)n1
PROPERTY NAME: pKd
VALUE OPERATOR: =
VALUE OBSERVED: 5.13

TEST SMILES: N#Cc1ccnc(N2CCC3(CCCN(Cc4c[nH]c5ccccc45)C3=O)CC2)c1
PROPERTY NAME: pKd
VALUE OPERATOR: =
VALUE OBSERVED: 5.76

TEST SMILES: COc1cc(C)nc(N2CCC3(CCCN(Cc4c[nH]c5ccccc45)C3=O)CC2)n1
PROPERTY NAME: pKd
VALUE OPERATOR: =
VALUE OBSERVED: 6.06

TEST SMILES: Cc1cc(C)nc(N2CCC3(CCCN(Cc4n[nH]cc4-c4ccccc4)C3=O)CC2)n1
PROPERTY NAME: pKd
VALUE OPERATOR: =
VALUE OBSERVED: 5.74

TEST SMILES: Cc1ccc2[nH]cc(CN3CCCC4(CCN(c5nc(C)cc(C)n5)CC4)C3=O)c2c1
PROPERTY NAME: pKd
VALUE OPERATOR: =
VALUE OBSERVED: 5.99

TEST SMILES: COc1cccc(-c2sc(C)nc2CN2CCCC3(CCN(c4nc(C)cc(C)n4)CC3)C2=O)c1
PROPERTY NAME: pKd
VALUE OPERATOR: =
VALUE OBSERVED: 6.63

TEST SMILES: COc1cc(C)nc(N2CCC3(CCCN(Cc4n[nH]c5ccccc45)C3=O)CC2)n1
PROPERTY NAME: pKd
VALUE OPERATOR: =
VALUE OBSERVED: 6.04

TEST SMILES: Cc1ccnc(N2CCC3(CCCC(=O)N3Cc3cccc4[nH]c(C)cc34)CC2)n1
PROPERTY NAME: pKd
VALUE OPERATOR: =
VALUE OBSERVED: 5.71
